# pest or weed control at 1000 g/ha values compiled below
- System: Amaranthus retoflexus (AMARE)
- Run Description: Pre-emergence biological efficacy, glasshouse pot test
- Assay type: in vivo
- Stated Conditions: Amaranthus retroflexus, 312 h; pre-emergence, 1,000 g/ha, evaluated after 13 days (100=total damage; 0=no damage); read-out: Percentage damage AMARE
The figure you give is taken to be in %; do not add the unit.

{"columns": ["Compound", "Target Entity", "pest or weed control at 1000 g/ha [%]"],
 "data": [
  ["COC(=O)c1nc(C2CC2)nc(N[C@H](C)[C@@H](O)c2ccccc2)c1Cl [4-270 (erythro)]", "Amaranthus retoflexus (AMARE)", 80],
  ["COC(=O)c1nc(C2CC2)nc(NC2CCC2)c1Cl [Compound 4-32]", "Amaranthus retoflexus (AMARE)", 80]
]}

In the following, a different compound is considered.
Lab note: need pest or weed control at 1000 g/ha with Amaranthus retoflexus (AMARE) for entry COC(=O)c1nc(C2CC2)nc(NCC(O)c2ccc(O)cc2)c1Cl (stereo not drawn) [Compound 4-259] , please look it up. 100

* * *

- Test system: Setaria faberi (SETFA)
- Run Description: Post-emergence biological efficacy, glasshouse pot test
- Type: in vivo
- Stated Conditions: 312 h, Rate 1,000 g/ha, post-emergence spray, evaluated after 13 days (100=total damage to plant; 0=no damage to plant), read-out: Percentage damage caused to weed species, post-emergence, SETFA
Parameter: pest or weed control at 1000 g/ha (%)
Report as a plain number; the unit % is understood.

These solved cases illustrate the format of a correct answer.
{"columns": ["Smiles Repr", "Parameter", "Unit Abbrev", "Recorded Measurement"],
 "data": [
  ["COC(=O)c1nc(C2CC2)nc(N(C)Cc2ccccc2[N+](=O)[O-])c1Cl", "pest or weed control at 1000 g/ha", "%", 90],
  ["COC(=O)c1nc(C2CC2)nc(N(CCO)Cc2cccnc2)c1Cl", "pest or weed control at 1000 g/ha", "%", 0],
  ["COC(=O)c1nc(-c2ccc(C)c([N+](=O)[O-])c2)nc(NCc2ccco2)c1Cl", "pest or weed control at 1000 g/ha", "%", 10],
  ["COC(=O)c1nc(-c2ccc(C)c(Cl)c2)nc(NCc2ccco2)c1Cl", "pest or weed control at 1000 g/ha", "%", 0]
]}

What value of pest or weed control at 1000 g/ha has been reported for the following compound? C=CCN(Cc1ccc(Cl)s1)c1nc(C2CC2)nc(C(=O)OC)c1Cl 60

Recorded pest or weed control at 1000 g/ha of COC(=O)c1nc(-c2cc(Cl)c(Cl)cc2Cl)nc(NCc2ccco2)c1Cl , please. 20

// lookup pest or weed control at 1000 g/ha for CCN(Cc1ccc(Br)s1)c1nc(C2CC2)nc(C(=O)OC)c1Cl 90

May I ask what pest or weed control at 1000 g/ha has been recorded for NC(=O)c1nc(C2CC2)nc(NCc2ccco2)c1Cl ? 50

Which pest or weed control at 1000 g/ha is reported for this compound? O=C(NCc1ccco1)c1nc(C2CC2)nc(NCc2ccco2)c1Cl 20

pest or weed control at 1000 g/ha lookup needed for CCN(Cc1ccc(OC)c(OC)c1)c1nc(C2CC2)nc(C(=O)OC)c1Cl , thanks. 80

For the compound CC(C)COC(=O)c1nc(C2CC2)nc(NCc2ccco2)c1Cl , what pest or weed control at 1000 g/ha is on record? 70

pest or weed control at 1000 g/ha for CCN(Cc1cccc(F)c1)c1nc(C2CC2)nc(C(=O)OC)c1Cl ? 90

Entry CCOC(=O)c1nc(C2CC2)nc(NCc2ccco2)c1Cl has what pest or weed control at 1000 g/ha? 90

Look up pest or weed control at 1000 g/ha for this compound: COC(=O)c1nc(-c2ccc(Cl)cc2)nc(NC2CC2)c1Cl 90

For COC(=O)c1nc(-c2cccc(OC)c2F)nc(NCc2ccco2)c1Cl , what is its reported pest or weed control at 1000 g/ha? 0

pest or weed control at 1000 g/ha for COC(=O)c1nc(-c2cc(F)c(F)cc2F)nc(NCc2ccco2)c1Cl ? 10

Would you mind telling me what pest or weed control at 1000 g/ha value was observed for COC(=O)c1nc(-c2ccc(Cl)c(Cl)c2Cl)nc(NCc2ccco2)c1Cl ? 70

Field request: pest or weed control at 1000 g/ha | item: COC(=O)c1nc(-c2ccc(Cl)cc2)nc(NCc2ccco2)c1Cl 90

* * *

- Test system: Echinochloa crus-galli (ECHCG)
- Run Description: Pre-emergence biological efficacy, glasshouse pot test
- Assay type: in vivo
- Stated Conditions: 312 h, pre-emergence, rate 1,000 g/ha, evaluated after 13 days (100=total damage to plant; 0=no damage), read-out: Percentage damage caused to weed species, ECHCG
Each item that follows carries a reported pest or weed control at 1000 g/ha.
Numbers only here, please. The scale is %.

Worked cases, pest or weed control at 1000 g/ha given:
{"columns": ["Compound", "Recorded Measurement"],
 "data": [
  ["C=CCN(Cc1ccccc1)c1nc(C2CC2)nc(C(=O)OC)c1Cl", 20],
  ["CCC(C)N(Cc1ccccc1)c1nc(C2CC2)nc(C(=O)OC)c1Cl (stereo not shown)", 0],
  ["COC(=O)c1nc(-c2ccc(Cl)c(F)c2Cl)nc(NCc2ccco2)c1Cl", 0]
]}

What is its pest or weed control at 1000 g/ha for Echinochloa crus-galli (ECHCG)? Entry: COC(=O)c1nc(-c2ccc(Cl)c(F)c2)nc(NCc2ccco2)c1Cl 50

Quick check: pest or weed control at 1000 g/ha on Echinochloa crus-galli (ECHCG), item COC(=O)c1nc(C2CC2)nc(N(C)Cc2ccc(Cl)c(Cl)c2)c1Cl ? 10

Please provide the recorded pest or weed control at 1000 g/ha for COC(=O)c1nc(C2CC2)nc(N(C)Cc2c(Cl)cccc2Cl)c1Cl , tested on Echinochloa crus-galli (ECHCG). 0

What pest or weed control at 1000 g/ha appears in the records for this compound with Echinochloa crus-galli (ECHCG)? COC(=O)c1nc(C2CC2)nc(N(C)CCc2ccccn2)c1Cl 0

What reported pest or weed control at 1000 g/ha corresponds to COC(=O)c1nc(-c2ccc(F)c(F)c2F)nc(NCc2ccco2)c1Cl on Echinochloa crus-galli (ECHCG)? 10

Give Echinochloa crus-galli (ECHCG) pest or weed control at 1000 g/ha for CC(C)OC(=O)c1nc(C2CC2)nc(NCc2ccco2)c1Cl 70

Any idea what pest or weed control at 1000 g/ha came out for COC(=O)c1nc(-c2ccc(Cl)cc2OC)nc(NCc2ccco2)c1Cl on Echinochloa crus-galli (ECHCG)? 0

// fetch Echinochloa crus-galli (ECHCG) pest or weed control at 1000 g/ha for COC(=O)c1nc(-c2ccc(Cl)c(Cl)c2Cl)nc(NCc2ccco2)c1Cl 30

Hi! What's the reported pest or weed control at 1000 g/ha for COC(=O)c1nc(-c2ccc(Cl)c(OC)c2)nc(NCc2ccco2)c1Cl on Echinochloa crus-galli (ECHCG)? 0

Missing value: pest or weed control at 1000 g/ha, Echinochloa crus-galli (ECHCG), entry COC(=O)c1nc(C2CC2)nc(N(C)Cc2cccc(Cl)c2)c1Cl . Fill in? 0

# returns recorded pest or weed control at 1000 g/ha (system: Echinochloa crus-galli (ECHCG)) for COC(=O)c1nc(-c2ccc(C)c(Cl)c2)nc(NCc2ccco2)c1Cl 0

Field: pest or weed control at 1000 g/ha (Echinochloa crus-galli (ECHCG)). Entry: COC(=O)c1nc(Cl)nc(NC2CC2)c1Cl 0

Give recorded pest or weed control at 1000 g/ha with Echinochloa crus-galli (ECHCG) for the following compound: C=CCN(Cc1ccccc1F)c1nc(C2CC2)nc(C(=O)OC)c1Cl 0

* * *

- System: Amaranthus retoflexus (AMARE)
- Run Description: Pre-emergence biological efficacy, glasshouse pot test
- Type: in vivo
- Stated Conditions: Amaranthus retroflexus, 312 h; pre-emergence, 1,000 g/ha, evaluated after 13 days (100=total damage; 0=no damage); read-out: Percentage damage AMARE
pest or weed control at 1000 g/ha overview

As a guide, the following entries are already answered.
{"columns": ["Compound", "pest or weed control at 1000 g/ha"],
 "data": [
  ["COC(=O)c1nc(C2CC2)nc(NC2(CCc3ccccc3)CC2)c1Cl", "50%"],
  ["O=C(O)c1nc(C2CC2)nc(NC2CCCC2)c1Cl", "80%"]
]}

Field request: pest or weed control at 1000 g/ha | item: COC(=O)c1nc(C2CC2)nc(NCc2ccc(F)cc2)c1Cl 90%

Reported pest or weed control at 1000 g/ha for COC(=O)c1nc(C2CC2)nc(NCc2cccc(F)c2)c1Cl : what is it? 80%

Returns the measured pest or weed control at 1000 g/ha for the input compound. Input: COC(=O)c1nc(C2CC2)nc(NCc2cnc(Cl)s2)c1Cl 70%

Sample COC(=O)c1nc(C2CC2)nc(NCCCN2CCCC2=O)c1Cl — what was its pest or weed control at 1000 g/ha? 80%

I have this compound here, COC(=O)c1nc(C2CC2)nc(NCCSCc2ccccc2)c1Cl , and I need its recorded pest or weed control at 1000 g/ha. 40%

Any idea what pest or weed control at 1000 g/ha was measured for COC(=O)c1nc(C2CC2)nc(NC(Cc2ccccc2)C(=O)OC)c1Cl (stereo not drawn) ? 100%

What measured pest or weed control at 1000 g/ha goes with COC(=O)c1nc(C2CC2)nc(NCc2ccc(Cl)cc2F)c1Cl ? 70%
